Molecular target: UniProt P35408
Assay: EP4 radioligand binding (Ki), [3H]PGE2
Settings: EP4, HEK-293 membranes, read-out: EP4 Ki EC50
Kindly supply the reported EP4 Ki values for the records listed here.
The response must be a number in nM with no trailing unit.

Incoming: Look up EP4 Ki for this molecule: COc1cc(CN2CCCc3cccc(CCc4ccc(C(=O)O)cc4)c32)cc(OC)c1
Outgoing: 453

Incoming: For the molecule O=C(O)c1ccc(CCc2cccc3c2C(Cc2cc(F)cc(F)c2)=CC3)cc1 , what EP4 Ki is on record?
Outgoing: 134

Incoming: Given the entry O=C(O)c1ccc(CCc2cccc3c2C(Cc2cc(C(F)(F)F)cc(C(F)(F)F)c2)=CC3)cc1 , report its measured EP4 Ki.
Outgoing: 736

Incoming: Could you share which EP4 Ki value was measured for COc1cc(CC2=CCc3cc(F)cc(CCc4ccc(C(=O)O)cc4)c32)cc(OC)c1 ?
Outgoing: 0.4

Incoming: For the molecule shown here, COc1ccccc1CC1=CCc2cccc(CCc3ccc(C(=O)O)cc3)c21 , give the reported EP4 Ki.
Outgoing: 71

Incoming: # query: EP4 Ki of entry COc1cc(/C=C2\CCc3cccc(CCc4ccc(C(=O)O)cc4)c32)cc(OC)c1
Outgoing: 42

Incoming: EP4 Ki for Cc1cc(C)cc(CC2=CCc3cccc(CCc4ccc(C(=O)O)cc4)c32)c1 ?
Outgoing: 240

Incoming: Fill in: EP4 Ki of COc1cccc(CC2=CCc3cccc(CCc4ccc(C(=O)O)cc4)c32)c1OC is ___
Outgoing: 251

Incoming: Suppose we examine the molecule COc1cc(CC2=CCc3cccc(-c4ccc(OCC(=O)O)cc4)c32)cc(OC)c1 ; what EP4 Ki value has been reported?
Outgoing: 4470

Incoming: Field request: EP4 Ki | item: COc1cc(CC2CCc3cccc(OCc4ccc(C(=O)O)cc4)c32)cc(OC)c1 (centres unmarked)
Outgoing: 154

Incoming: Field request: EP4 Ki | item: COc1cc(CC2=CCc3ccc(OC)c(CCc4ccc(C(=O)O)cc4)c32)cc(OC)c1
Outgoing: 469

---

Target: UniProt P35408
Experiment: EP4 cAMP EC50
Each record is given 1.0 if its reported EC50 is strictly below 40 nM. Records at or above 40 nM are given 0.0.

Incoming: EC50 strictly < 40 nM for this molecule? COc1cc(CC2CCc3cccc(CCc4ccc(C(=O)O)cc4)c32)cc(OC)c1 (centres unmarked)
Outgoing: 1.0

Incoming: For this molecule, is EC50 lower than 40 nM? COc1cc(CC2CCc3cccc(OCc4ccc(C(=O)O)cc4)c32)cc(OC)c1 (centres unmarked)
Outgoing: 1.0

Incoming: Problem: For the molecule COc1ccc(CC2=CCc3cccc(CCc4ccc(C(=O)O)cc4)c32)cc1 , is EC50 under 40 nM?
Outgoing: 0.0

Incoming: Quick check: EC50 of COc1cc(CC2=CCCc3cccc(CCc4ccc(C(=O)O)cc4)c32)cc(OC)c1 under 40 nM?
Outgoing: 0.0

Incoming: For COc1ccccc1CC1=CCc2cccc(CCc3ccc(C(=O)O)cc3)c21 , is the recorded EC50 below the cut-off of 40 nM?
Outgoing: 0.0

---

Biological target: EP4 (Homo sapiens (Human), UniProt P35408)
Sequence (P35408 whole entry): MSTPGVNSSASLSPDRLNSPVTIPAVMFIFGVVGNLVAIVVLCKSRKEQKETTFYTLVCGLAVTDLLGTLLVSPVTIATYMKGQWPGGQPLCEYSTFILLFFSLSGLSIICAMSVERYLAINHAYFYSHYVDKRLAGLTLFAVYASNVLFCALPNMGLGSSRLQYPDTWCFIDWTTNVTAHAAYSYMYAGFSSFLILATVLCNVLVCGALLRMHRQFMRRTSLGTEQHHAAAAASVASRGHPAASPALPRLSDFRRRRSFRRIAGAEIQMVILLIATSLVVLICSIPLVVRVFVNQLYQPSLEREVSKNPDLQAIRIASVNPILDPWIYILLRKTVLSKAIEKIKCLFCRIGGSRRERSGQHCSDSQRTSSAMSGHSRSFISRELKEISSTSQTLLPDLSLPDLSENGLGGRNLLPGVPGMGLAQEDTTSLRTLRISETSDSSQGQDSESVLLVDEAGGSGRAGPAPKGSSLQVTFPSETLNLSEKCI
Assay: EP4 cAMP EC50
Assay type: cell-based
For each entry below, report its EC50 value.
The reply should contain only the number, in nM.

Incoming: Any idea what EC50 was measured for COc1ccc(OC)c(CC2=CCc3cccc(CCc4ccc(C(=O)O)cc4)c32)c1 [Entry 4] ?
Outgoing: 71

Incoming: Fill in the blank: the reported EC50 of COc1cc(CC2=CCc3cccc(CCc4ccc(C(=O)O)cc4)c32)cc(OC)c1 [Entry 15] is ____.
Outgoing: 1

Incoming: Returns the measured EC50 for the input molecule. Input: O=C(O)c1ccc(CCc2cccc3c2C(Cc2cc(Cl)cc(Cl)c2)=CC3)cc1 [Entry 10]
Outgoing: 23

Incoming: Which EC50 is listed for COc1cccc(Cn2ccc3cccc(CCc4ccc(C(=O)O)cc4)c32)c1 [Entry 15] ?
Outgoing: 3130

---

Target: EP2 (Homo sapiens (Human))
Sequence (P43116 whole entry): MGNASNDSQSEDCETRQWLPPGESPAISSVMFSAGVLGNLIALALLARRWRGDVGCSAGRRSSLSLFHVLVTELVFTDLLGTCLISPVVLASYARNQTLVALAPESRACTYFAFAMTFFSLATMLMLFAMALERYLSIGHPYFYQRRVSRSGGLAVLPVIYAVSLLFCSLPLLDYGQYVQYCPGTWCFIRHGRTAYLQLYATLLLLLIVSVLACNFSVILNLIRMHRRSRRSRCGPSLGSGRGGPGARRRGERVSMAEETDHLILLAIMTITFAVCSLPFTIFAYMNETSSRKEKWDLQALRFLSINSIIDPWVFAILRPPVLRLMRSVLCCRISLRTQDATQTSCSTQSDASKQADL
Experiment: EP2 cAMP EC50
I'd be grateful if you could share measured pEC50 for these entries.
The quantity pEC50 is defined as the negative base-10 logarithm of the molar concentration.

Incoming: Requested field: pEC50. Item: COc1cc(CC2=CCc3c(F)ccc(CCc4ccc(C(=O)O)cc4)c32)cc(OC)c1
Outgoing: 7.60

Incoming: Report pEC50 for COc1ccc(CC2=CCc3cccc(CCc4ccc(C(=O)O)cc4)c32)cc1 please.
Outgoing: 6.94

Incoming: # pEC50 lookup, item Cc1cc(C)cc(CC2=CCc3cccc(CCc4ccc(C(=O)O)cc4)c32)c1
Outgoing: 7.89

Incoming: Return reported pEC50; argument: COc1ccccc1CC1=CCc2cccc(CCc3ccc(C(=O)O)cc3)c21
Outgoing: 7.24

Incoming: Value lookup for pEC50; key = COc1ccc(CC2=CCc3cccc(CCc4ccc(C(=O)O)cc4)c32)cc1OC
Outgoing: 6.79

Incoming: Consider the compound O=C(O)c1ccc(CCc2cccc3c2C(Cc2cc(F)cc(F)c2)=CC3)cc1 and give its measured pEC50.
Outgoing: 8.22

Incoming: Could you tell me which pEC50 is on file for COc1cc(/C=C2\CCc3cccc(CCc4ccc(C(=O)O)cc4)c32)cc(OC)c1 ?
Outgoing: 7.55
